Source of measurements: patent US20170226072A1

targetOrSystem: VMAT2 (Rattus norvegicus, UniProt Q01827)
Construct: conducted using isolated synaptic vesicle preparations; from tissue; host or cells: rat striatum, isolated synaptic vesicles
Sequence (Q01827 whole entry): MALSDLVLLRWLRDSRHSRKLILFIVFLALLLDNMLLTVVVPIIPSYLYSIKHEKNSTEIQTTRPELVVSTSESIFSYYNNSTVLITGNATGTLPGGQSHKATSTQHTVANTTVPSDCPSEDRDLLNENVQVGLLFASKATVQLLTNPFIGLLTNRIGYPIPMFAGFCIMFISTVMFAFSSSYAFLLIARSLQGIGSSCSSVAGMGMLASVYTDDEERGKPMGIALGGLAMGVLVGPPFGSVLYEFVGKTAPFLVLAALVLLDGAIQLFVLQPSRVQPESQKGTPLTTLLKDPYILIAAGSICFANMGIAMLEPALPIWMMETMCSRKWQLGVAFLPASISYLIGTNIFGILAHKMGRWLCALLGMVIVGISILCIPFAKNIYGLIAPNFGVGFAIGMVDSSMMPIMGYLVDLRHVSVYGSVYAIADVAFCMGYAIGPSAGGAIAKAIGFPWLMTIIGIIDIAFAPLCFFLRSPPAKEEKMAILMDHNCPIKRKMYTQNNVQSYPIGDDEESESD
assayExplanation: [3H]Dopamine ([3H]DA) uptake assay, vesicular preparation
Format: biochemical
reportedConditions: rat striatal synaptic vesicles, 0.1 μM [3H]DA; read-out: [3H]DA Uptake (Ki) VMAT2
Record form. Attribute: Ki. Fill in for each entry.
One number for each entry, in nM.

compound="COc1ccc(CCC2CCN(CCc3ccc(F)cc3)CC2)cc1 [Compound 25]" experimentalendpoint=Ki assayresult=60
compound="COc1ccccc1CCC1CCN(CCc2ccc(F)cc2)CC1 [Compound 29]" experimentalendpoint=Ki assayresult=13
compound="COc1ccc(CCN2CCC(CCc3cccc(OC)c3)CC2)cc1 [Compound 17]" experimentalendpoint=Ki assayresult=130
compound="COc1cccc(CCN2CCCN(CCc3cccc(OC)c3)CC2)c1 [Compound 67]" experimentalendpoint=Ki assayresult=100

Okay, now this compound:
Query block: Entry COc1cc(OC)c(OC)cc1CCC1CCN(CCc2ccccc2)CC1 [Compound 9] needs its Ki filled in; supply it.
Result block: 94
